Cited source for all entries: the supplement of paper PMC10307832

tested on: NCI-H522; assay: relative viability (nuclei count vs DMSO), 5 days (fraction); higher = more cells survive; conditions: first compound 0.06325 µM
Each entry below carries its recorded relative viability.
Please give only the number in your answer, with no unit.

Known relative viability results, listed for orientation:
# Molecule, Experimental endpoint, Recorded measurement
rows = [
    ("CCNC(=O)c1noc(-c2cc(C(C)C)c(O)cc2O)c1-c1ccc(CN2CCOCC2)cc1 [Luminespib] + Nc1ncn([C@H]2C[C@H](O)[C@@H](CO)O2)c(=O)n1 [Decitabine] (partner 2 µM)", "relative viability", 0.6),
    ("CCNC(=O)c1noc(-c2cc(C(C)C)c(O)cc2O)c1-c1ccc(CN2CCOCC2)cc1 [Luminespib] + O=C(CCCCCCC(=O)Nc1ccccc1)NO [Vorinostat] (partner 1 µM)", "relative viability", 0.607),
    ("CCNC(=O)c1noc(-c2cc(C(C)C)c(O)cc2O)c1-c1ccc(CN2CCOCC2)cc1 [Luminespib] + COc1cccc2cc(-c3nc([C@H]4CC[C@H](C(=O)O)CC4)n4ncnc(N)c34)[nH]c12 [OSI-027] (partner 0.5 µM)", "relative viability", 0.538),
    ("CCNC(=O)c1noc(-c2cc(C(C)C)c(O)cc2O)c1-c1ccc(CN2CCOCC2)cc1 [Luminespib] + CC(=O)c1c(C)c2cnc(Nc3ccc(N4CCNCC4)cn3)nc2n(C2CCCC2)c1=O [Palbociclib] (partner 0.5 µM)", "relative viability", 0.861),
    ("CCNC(=O)c1noc(-c2cc(C(C)C)c(O)cc2O)c1-c1ccc(CN2CCOCC2)cc1 [Luminespib] + N=C(N)NC(=N)NCCc1ccccc1 [Phenformin] (partner 250 µM)", "relative viability", 0.546),
]

Here is another molecule to look at.
Challenge: Requested read-out: relative viability. Entry: CCNC(=O)c1noc(-c2cc(C(C)C)c(O)cc2O)c1-c1ccc(CN2CCOCC2)cc1 [Luminespib] + Cc1nc(Nc2ncc(C(=O)Nc3c(C)cccc3Cl)s2)cc(N2CCN(CCO)CC2)n1 [Dasatinib] (partner 0.075 µM)
Response given: 0.577

====

system: HARA; experiment: relative viability (nuclei count vs DMSO), 5 days (fraction); higher = more cells survive; conditions: first compound 2.53 µM
Experimental endpoint: relative viability
Please respond with just the number, no unit label.

Examples from the recorded data:
# Compound, Experimental endpoint, Recorded measurement
records = [
    ("Nc1cccc2c1CN(C1CCC(=O)NC1=O)C2=O (centres undefined) [Lenalidomide] + CC1(C)CCC(c2ccc(Cl)cc2)=C(CN2CCN(c3ccc(C(=O)NS(=O)(=O)c4ccc(N[C@H](CCN5CCOCC5)CSc5ccccc5)c(S(=O)(=O)C(F)(F)F)c4)cc3)CC2)C1 [Navitoclax] (partner 0.5 µM)", "relative viability", 1.19),
    ("Nc1cccc2c1CN(C1CCC(=O)NC1=O)C2=O (centres undefined) [Lenalidomide] + C[C@@H](Oc1cc(-c2cnn(C3CCNCC3)c2)cnc1N)c1c(Cl)ccc(F)c1Cl [Crizotinib] (partner 1 µM)", "relative viability", 1.2),
    ("Nc1cccc2c1CN(C1CCC(=O)NC1=O)C2=O (centres undefined) [Lenalidomide] + CC(=O)Nc1cccc(-n2c(=O)n(C3CC3)c(=O)c3c(Nc4ccc(I)cc4F)n(C)c(=O)c(C)c32)c1 [Trametinib] (partner 0.02 µM)", "relative viability", 0.542),
]

Shift focus to the following entry.
Challenge: Endpoint output: relative viability of Nc1cccc2c1CN(C1CCC(=O)NC1=O)C2=O (centres undefined) [Lenalidomide] + Cc1nc(NC(=O)N2CCC[C@H]2C(N)=O)sc1-c1ccnc(C(C)(C)C(F)(F)F)c1 [Alpelisib] (partner 2 µM) . Value?
Response given: 0.921

====

system: NCI-H2342; assay: relative viability (nuclei count vs DMSO), 5 days (fraction); higher = more cells survive; settings: first compound 0.02 µM
Experimental endpoint: relative viability

Challenge: What value of measured relative viability is listed for CCNC(=O)c1noc(-c2cc(C(C)C)c(O)cc2O)c1-c1ccc(CN2CCOCC2)cc1 [Luminespib] + NC(=O)Nc1cc(-c2cccc(F)c2)sc1C(=O)N[C@H]1CCCNC1 [AZD7762] (partner 0.2 µM) ?
Response given: 0.371

Challenge: What does the record list as relative viability for CN1CCN(CCOc2cc(OC3CCOCC3)c3c(Nc4c(Cl)ccc5c4OCO5)ncnc3c2)CC1 [Saracatinib] + Cc1nc(Nc2ncc(C(=O)Nc3c(C)cccc3Cl)s2)cc(N2CCN(CCO)CC2)n1 [Dasatinib] (partner 0.075 µM) ?
Response given: 0.398

Challenge: Sample CCNC(=O)c1noc(-c2cc(C(C)C)c(O)cc2O)c1-c1ccc(CN2CCOCC2)cc1 [Luminespib] + Nc1ncn([C@H]2C[C@H](O)[C@@H](CO)O2)c(=O)n1 [Decitabine] (partner 2 µM) — what was its relative viability?
Response given: 0.546

Challenge: What value of measured relative viability is listed for CCNC(=O)c1noc(-c2cc(C(C)C)c(O)cc2O)c1-c1ccc(CN2CCOCC2)cc1 [Luminespib] + Cc1nc(Nc2ncc(C(=O)Nc3c(C)cccc3Cl)s2)cc(N2CCN(CCO)CC2)n1 [Dasatinib] (partner 0.075 µM) ?
Response given: 0.287

Challenge: Request the reported relative viability associated with CN1CCN(CCOc2cc(OC3CCOCC3)c3c(Nc4c(Cl)ccc5c4OCO5)ncnc3c2)CC1 [Saracatinib] + O=C(CCCCCCC(=O)Nc1ccccc1)NO [Vorinostat] (partner 1 µM)
Response given: 0.774

Challenge: Please look up its relative viability: CCNC(=O)c1noc(-c2cc(C(C)C)c(O)cc2O)c1-c1ccc(CN2CCOCC2)cc1 [Luminespib] + O=C(c1cc(Cc2n[nH]c(=O)c3ccccc23)ccc1F)N1CCN(C(=O)C2CC2)CC1 [Olaparib] (partner 8 µM)
Response given: 0.324

Challenge: Record request: relative viability value, item CN1CCN(CCOc2cc(OC3CCOCC3)c3c(Nc4c(Cl)ccc5c4OCO5)ncnc3c2)CC1 [Saracatinib] + COc1cc2c(Oc3ccc(NC(=O)C4(C(=O)Nc5ccc(F)cc5)CC4)cc3F)ccnc2cc1OCCCN1CCOCC1 [Foretinib] (partner 0.25 µM)
Response given: 0.84

Challenge: I am curious: what relative viability value has been reported for CCNC(=O)c1noc(-c2cc(C(C)C)c(O)cc2O)c1-c1ccc(CN2CCOCC2)cc1 [Luminespib] + CC(=O)c1c(C)c2cnc(Nc3ccc(N4CCNCC4)cn3)nc2n(C2CCCC2)c1=O [Palbociclib] (partner 0.5 µM) ?
Response given: 0.438

====

Listed here are compounds together with their documented relative viability.
tested on: NCI-H2228; assay: relative viability (nuclei count vs DMSO), 5 days (fraction); higher = more cells survive; settings: first compound 0.02 µM

Below, each entry is followed by its recorded relative viability result.
# Compound, Recorded measurement
data = [
    ("CCNC(=O)c1noc(-c2cc(C(C)C)c(O)cc2O)c1-c1ccc(CN2CCOCC2)cc1 [Luminespib] + CS(=O)(=O)N1CCN(Cc2cc3nc(-c4cccc5[nH]ncc45)nc(N4CCOCC4)c3s2)CC1 [Pictilisib] (partner 1 µM)", 0.122),
    ("CCNC(=O)c1noc(-c2cc(C(C)C)c(O)cc2O)c1-c1ccc(CN2CCOCC2)cc1 [Luminespib] + CS(=O)(=O)CCNCc1ccc(-c2ccc3ncnc(Nc4ccc(OCc5cccc(F)c5)c(Cl)c4)c3c2)o1 [Lapatinib] (partner 2 µM)", 0.191),
    ("CN1CCN(CCOc2cc(OC3CCOCC3)c3c(Nc4c(Cl)ccc5c4OCO5)ncnc3c2)CC1 [Saracatinib] + Nc1nc2[nH]cc(CCc3ccc(C(=O)N[C@@H](CCC(=O)O)C(=O)O)cc3)c2c(=O)[nH]1 [Pemetrexed] (partner 0.2 µM)", 0.355),
]

Challenge: What relative viability value was documented for this compound, CCNC(=O)c1noc(-c2cc(C(C)C)c(O)cc2O)c1-c1ccc(CN2CCOCC2)cc1 [Luminespib] + C[C@]1(O)C[C@@H](c2nc(-c3ccc4ccc(-c5ccccc5)nc4c3)c3c(N)nccn32)C1 [Linsitinib] (partner 1 µM) ?
Response given: 0.203

Challenge: // returns reported relative viability for input CCNC(=O)c1noc(-c2cc(C(C)C)c(O)cc2O)c1-c1ccc(CN2CCOCC2)cc1 [Luminespib] + COc1cccc2cc(-c3nc([C@H]4CC[C@H](C(=O)O)CC4)n4ncnc(N)c34)[nH]c12 [OSI-027] (partner 0.5 µM)
Response given: 0.116

====

Recorded relative viability for the following molecules
test system: ChaGo-K-1; experiment: relative viability (nuclei count vs DMSO), 5 days (fraction); higher = more cells survive; details: first compound 20 µM
Please give the numeric answer without any surrounding text.

# Molecule, Experimental endpoint, Recorded measurement
measured = [
    ("Cc1csc(=NC2CCCCC2)n1/N=C/c1ccc(O)c(O)c1O [MIM1] + COc1cc2c(Oc3ccc(NC(=O)C4(C(=O)Nc5ccc(F)cc5)CC4)cc3F)ccnc2cc1OCCCN1CCOCC1 [Foretinib] (partner 0.25 µM)", "relative viability", 0.282),
    ("Cc1csc(=NC2CCCCC2)n1/N=C/c1ccc(O)c(O)c1O [MIM1] + N=C(N)NC(=N)NCCc1ccccc1 [Phenformin] (partner 250 µM)", "relative viability", 0.171),
    ("Cc1csc(=NC2CCCCC2)n1/N=C/c1ccc(O)c(O)c1O [MIM1] + C[C@@H](Oc1cc(-c2cnn(C3CCNCC3)c2)cnc1N)c1c(Cl)ccc(F)c1Cl [Crizotinib] (partner 1 µM)", "relative viability", 0.285),
]

Challenge: Reported relative viability, molecule Cc1csc(=NC2CCCCC2)n1/N=C/c1ccc(O)c(O)c1O [MIM1] + CS(=O)(=O)N1CCN(Cc2cc3nc(-c4cccc5[nH]ncc45)nc(N4CCOCC4)c3s2)CC1 [Pictilisib] (partner 1 µM) : ____
Response given: 0.265

Challenge: Fill blank: measured relative viability of the molecule Cc1csc(=NC2CCCCC2)n1/N=C/c1ccc(O)c(O)c1O [MIM1] + COc1cccc2cc(-c3nc([C@H]4CC[C@H](C(=O)O)CC4)n4ncnc(N)c34)[nH]c12 [OSI-027] (partner 0.5 µM) is ____.
Response given: 0.159

Challenge: Quick one: relative viability for Cc1csc(=NC2CCCCC2)n1/N=C/c1ccc(O)c(O)c1O [MIM1] + Nc1nc2[nH]cc(CCc3ccc(C(=O)N[C@@H](CCC(=O)O)C(=O)O)cc3)c2c(=O)[nH]1 [Pemetrexed] (partner 0.2 µM) ?
Response given: 0.189

Challenge: State the recorded relative viability for this entry: Cc1csc(=NC2CCCCC2)n1/N=C/c1ccc(O)c(O)c1O [MIM1] + O=C(CCCCCCC(=O)Nc1ccccc1)NO [Vorinostat] (partner 1 µM)
Response given: 0.157
